Each entry below lists one item and its recorded viability at 24 h, 5 µM value.
test.description: Cytotoxicity against mouse HT22 cells assessed as cell viability at 5 uM after 24 hrs by MTT assay relative to control
Format: cell-based, HT-22
settings: read-out: Activity
property.name: viability at 24 h, 5 µM (%)

[[record]]
compound = "Cc1ccc(NC(=O)Nc2ncccc2OCc2cccc(Cl)c2)cc1"
value_observed = 95

[[record]]
compound = "O=C(Nc1cccc(F)c1)Nc1ncccc1OCc1cccc(Cl)c1"
value_observed = 91

[[record]]
compound = "O=C(Nc1ccc(Cl)c(Cl)c1)Nc1ncccc1OCc1ccccc1Cl"
value_observed = 60

[[record]]
compound = "O=C(Nc1cccc(F)c1)Nc1ncccc1OCc1ccccc1Cl"
value_observed = 86

[[record]]
compound = "O=C(Nc1ccccc1F)Nc1ncccc1OCc1cccc(Cl)c1"
value_observed = 115

[[record]]
compound = "O=C(Nc1cccc(Cl)c1)Nc1ncccc1OCc1ccccc1Cl"
value_observed = 84

[[record]]
compound = "O=C(Nc1ccccc1)Nc1ncccc1OCc1cccc(Cl)c1"
value_observed = 98


====

System: HT-22
test.description: Toxicity in mouse HT22 cells assessed as ATP production level at 5 uM after 7 hrs by luciferase based assay relative to control
Assay type: cell-based
settings: ht-22, 7 h
property.name: Activity (%)

[[record]]
compound = "O=C(Nc1cccc(F)c1)Nc1ncccc1OCc1cccc(Cl)c1"
value_observed = 99

[[record]]
compound = "O=C(Nc1cccc(Cl)c1)Nc1ncccc1OCc1ccccc1Cl"
value_observed = 124

[[record]]
compound = "O=C(Nc1ccc(Cl)c(Cl)c1)Nc1ncccc1OCc1ccccc1Cl"
value_observed = 123

[[record]]
compound = "O=C(Nc1cccc(F)c1)Nc1ncccc1OCc1ccccc1Cl"
value_observed = 106

[[record]]
compound = "NC(=O)CN1CCCC1=O [PIRACETAM]"
value_observed = 88

[[record]]
compound = "O=C(Nc1ccccc1)Nc1ncccc1OCc1cccc(Cl)c1"
value_observed = 109

[[record]]
compound = "O=C(Nc1ccccc1F)Nc1ncccc1OCc1cccc(Cl)c1"
value_observed = 104

[[record]]
compound = "Cc1ccc(NC(=O)Nc2ncccc2OCc2cccc(Cl)c2)cc1"
value_observed = 108

